# protocol.notes: clinical
# assay.conditions: human, plasma, intravenous, clearance, range, patients who did not experience a DLT
measured.property: clearance

query: Recorded clearance for "C/C=C1\NC(=O)[C@H]2CSSCC/C=C/[C@H](CC(=O)N[C@H](C(C)C)C(=O)N2)OC(=O)[C@H](C(C)C)NC1=O" , please?
result: 33.3 to 557 mL/min

---

# protocol.notes: clinical
# assay.conditions: human, plasma, iv, 14 mg/m2, Cl (systemic clearance), Mild Cohort B, 14 mg/m^2 IV; geometric mean ± SD
measured.property: clearance (mL/min)
Respond with the bare value in mL/min.

query: Recorded clearance for "C/C=C1\NC(=O)[C@H]2CSSCC/C=C/[C@H](CC(=O)N[C@H](C(C)C)C(=O)N2)OC(=O)[C@H](C(C)C)NC1=O" , please?
result: 160

---

# protocol.notes: clinical
# assay.conditions: human, plasma, iv, 7 mg/m2
measured.property: half-life (h)
Respond with the bare value in h.

query: Recorded half-life for "C/C=C1\NC(=O)[C@H]2CSSCC/C=C/[C@H](CC(=O)N[C@H](C(C)C)C(=O)N2)OC(=O)[C@H](C(C)C)NC1=O" , please?
result: 14.1

---

# protocol.notes: clinical
# assay.conditions: human, plasma, iv, 5 mg/m2, Cl (systemic clearance), Severe Cohort D, 5 mg/m^2 IV; geometric mean ± SD
measured.property: clearance (mL/min)
Respond with the bare value in mL/min.

query: Recorded clearance for "C/C=C1\NC(=O)[C@H]2CSSCC/C=C/[C@H](CC(=O)N[C@H](C(C)C)C(=O)N2)OC(=O)[C@H](C(C)C)NC1=O" , please?
result: 80

---

# protocol.notes: clinical
# assay.conditions: human, plasma, iv, 5 mg/m2
measured.property: half-life (h)
Respond with the bare value in h.

query: Recorded half-life for "C/C=C1\NC(=O)[C@H]2CSSCC/C=C/[C@H](CC(=O)N[C@H](C(C)C)C(=O)N2)OC(=O)[C@H](C(C)C)NC1=O" , please?
result: 14.5

---

# protocol.notes: clinical
# assay.conditions: human, plasma, iv, 7 mg/m2, Cl (systemic clearance), Moderate Cohort C, 7 mg/m^2 IV; geometric mean ± SD
measured.property: clearance (mL/min)
Respond with the bare value in mL/min.

query: Recorded clearance for "C/C=C1\NC(=O)[C@H]2CSSCC/C=C/[C@H](CC(=O)N[C@H](C(C)C)C(=O)N2)OC(=O)[C@H](C(C)C)NC1=O" , please?
result: 115

---

# protocol.notes: clinical
# assay.conditions: human, plasma, iv, 5 mg/m2, V (volume of distribution), Severe Cohort D, 5 mg/m^2 IV; geometric mean ± SD
measured.property: Vd (L)
Respond with the bare value in L.

query: Recorded Vd for C/C=C1\NC(=O)[C@H]2CSSCC/C=C/[C@H](CC(=O)N[C@H](C(C)C)C(=O)N2)OC(=O)[C@H](C(C)C)NC1=O [romidepsin] , please?
result: 15.4

---

# protocol.notes: clinical
# assay.conditions: human, plasma, iv, 14 mg/m2, Cl (systemic clearance), Normal Cohort A, 14 mg/m^2 IV; geometric mean ± SD
measured.property: clearance (mL/min)
Respond with the bare value in mL/min.

query: Recorded clearance for "C/C=C1\NC(=O)[C@H]2CSSCC/C=C/[C@H](CC(=O)N[C@H](C(C)C)C(=O)N2)OC(=O)[C@H](C(C)C)NC1=O" , please?
result: 270
